tested on: NEK10; details: Compound Concentration (nM):1000;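 note: KINOMEscan scanMAX binding as percent activity remaining versus control; lower means stronger binding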
observationType: Percent Control (%)
// units = %; emit number, no label

Examples with answers:
compound | result
Cl.O=C(O[C@H]1CN[C@H](C#Cc2cc3ncnc(Nc4ccc5c(cnn5Cc5ccccc5)c4)c3s2)C1)N1CCOCC1 [GSK200398A] | 96
COc1ccc2cc(-c3c(-c4ccncc4)nc(-c4ccc(S(C)(=O)=O)cc4C)n3C)ccc2c1 | 69
Cc1cc(O)cc(C)c1/C=C/c1cncc(C(N)=O)c1 [GW435821X] | 100
C[C@@H](Oc1cc(-n2cnc3ccc(OC4CCN(C)CC4)cc32)sc1C(N)=O)c1ccccc1Cl [GSK579289A] | 92
COc1cccc(-c2c[nH]c3c(N/N=C/c4ccncc4)ncnc23)c1 [GW814408X] | 92

Given the compound CN(C)CCNC(=O)Nc1ccc(N(C)c2ccnc(Nc3ccc(CS(C)(=O)=O)cc3)n2)cc1.Cl [GW830900A] , write its reported Percent Control.
87

Given the compound CC1=C(C(=O)Nc2ccc3[nH]ncc3c2)C(c2ccc(Cl)c(Cl)c2)CC(=O)N1 (centres unmarked) [GSK299115A] , write its reported Percent Control.
72

Given the compound CN(C)c1cc2c(Nc3ccc4c(cnn4Cc4ccccc4)c3)ncnc2cn1 [GW282974X] , write its reported Percent Control.
89

Given the compound CN1CCN(C(=O)c2ccc(NC(=O)Nc3ccc(N(C)c4ccnc(Nc5ccc(CS(C)(=O)=O)cc5)n4)cc3)cc2)CC1.Cl [GW830263A] , write its reported Percent Control.
94

Given the compound CC(C)COC(=O)c1ccc2c(c1)/C(=C/Nc1ccc(S(N)(=O)=O)cc1)C(=O)N2 [GW416981X] , write its reported Percent Control.
100

Given the compound NS(=O)(=O)c1ccc(N/N=C2\C(=O)Nc3ccc(Cl)cc32)cc1 [GW280670X] , write its reported Percent Control.
100

Given the compound COc1ccc(COc2ccc(Cc3cnc(N)nc3N)cc2OC)cc1 [GW632580X] , write its reported Percent Control.
95

Given the compound COc1ccc2c(-c3ccnc(Nc4cccc(OC(F)(F)F)c4)n3)cnn2n1 [GW810372X] , write its reported Percent Control.
100

###

system: MET; settings: Compound Concentration (nM):1000
Below, each entry is listed alongside its reported Percent Control.
// units = %; emit number, no label

Examples with answers:
compound | systemName | Percent Control / %
COc1ccc(COc2ccc(Cc3cnc(N)nc3N)cc2OC)cc1 [GW632580X] | MET | 95
Cl.O=C(O[C@H]1CN[C@H](C#Cc2cc3ncnc(Nc4ccc5c(cnn5Cc5ccccc5)c4)c3s2)C1)N1CCOCC1 [GSK200398A] | MET | 100
COc1ccc2c(-c3ccnc(Nc4cccc(OC(F)(F)F)c4)n3)cnn2n1 [GW810372X] | MET | 100

As a next step, examine the compound that follows.
Given the compound COc1cc2ncn(-c3cc(O[C@H](C)c4ccccc4Cl)c(C(N)=O)s3)c2cc1OC [GSK237701A] , write its reported Percent Control.
78

###

Below, each entry is listed alongside its reported Percent Control.
system: FLT3(D835V); conditions: Compound Concentration (nM):1000
// units = %; emit number, no label

molecule | systemName | Percent Control [%]
O=C(Nc1n[nH]c2nc(-c3ccc(O)cc3)c(Br)cc12)C1CC1 [SB-725317] | FLT3(D835V) | 2.9
COc1cc2ncn(-c3cc(O[C@H](C)c4ccccc4Cl)c(C(N)=O)s3)c2cc1OC [GSK237701A] | FLT3(D835V) | 0
COc1cc(/C=N/Nc2ncnc3[nH]ncc23)ccc1O [GW578748X] | FLT3(D835V) | 0.2

As a next step, examine the molecule that follows.
Given the molecule COc1ccccc1-c1cc(/C=C2\C(=O)Nc3ncc(Br)cc32)cc(Br)c1O [GW442130X] , write its reported Percent Control.
73
